Give protein stability index for every item shown.
- assay comment: protein stability index of a GFP-peptide fusion (GPS, HEK-293T) (PSI 1-6); higher = more stable;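 further: 24-mer peptide tiles fused after GFP, lentivirally expressed, FACS-sorted into six equal bins by GFP/DsRed ratio, decoded by Illumina sequencing, PSI is the read-weighted mean bin number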
- conditions: treatment: MLN4924 1 uM, 8 h; c terminus: a fixed tail appended
Format: numeric value only, no unit, no commentary.

State the recorded protein stability index for this entry: LLRQLGRDAGATPSAAGAPASAPG [ANKRD9] 4.36

State the recorded protein stability index for this entry: TNSDTPTSFNHMDSDKLSGLWSRI [TOR1AIP2] 3.1

State the recorded protein stability index for this entry: EDVEDHYEMGEELGSGQFAIVRKC [DAPK3] 5.3

State the recorded protein stability index for this entry: TSYCELLQNKVPLLGSSTACIVVL [PPTC7] 2.55

State the recorded protein stability index for this entry: SVREVTQIKCIELKSELGRKWHKA [P2RY14] 3.23

State the recorded protein stability index for this entry: ANPQYTVYSQASTMSIPVAMETDG [PPP2R5C] 4.41

State the recorded protein stability index for this entry: EDLLLPGACPGADEAGGGAEGDSW [WEE1] 5.58

State the recorded protein stability index for this entry: TPVDMWSVGCIFAEMFRRKPLFCG [CDK4] 2.64

State the recorded protein stability index for this entry: TDANLPSGGKGFKLRRQPSEPKRS [RAB22A] 5.08

State the recorded protein stability index for this entry: STSQGCAQPQGAPCCSSSPEEPLN [FEM1A] 5.32

State the recorded protein stability index for this entry: SHRPNQHNTVKLGAFQAQEKELVF [PRIM1] 3.25

State the recorded protein stability index for this entry: GKHITVFKTYISPWERAMGVDPQQ [MYOZ1] 2.18

State the recorded protein stability index for this entry: TVQIICNTGYRLQNNENNISCVER [CFHR2] 2.64

State the recorded protein stability index for this entry: QNLVYYRFHRARWGLEEEDFQPRE [P3H4] 2.25

State the recorded protein stability index for this entry: RHAQTISGHALRILIVDWDVHHGN [HDAC6] 2.34

State the recorded protein stability index for this entry: DENSSDGRYVKENCKPLKSYMLQD [CLK3] 4.36

State the recorded protein stability index for this entry: DSGVGKSNLLSRFTRNEFNLESKS [RAB11A] 4.08

State the recorded protein stability index for this entry: KDESCYDNAEAAFSDDEEDLNSKG [INTS3] 5.5

State the recorded protein stability index for this entry: PPPTTAPHKERYFDRVDENNPEYL [ADD1] 5.14

State the recorded protein stability index for this entry: PVEDSHTADISSHFQEAIDFIDCV [DUSP5] 4.44

State the recorded protein stability index for this entry: SPRRSLYKLVGSPPWKEAFRQRCL [RPAIN] 2.4

State the recorded protein stability index for this entry: SGRDRVGRQERGLPPSMERGYPPP [RBMX] 3.94

State the recorded protein stability index for this entry: CLHHVHYLATEYLETHFRDVSSTE [GAN] 2.52

State the recorded protein stability index for this entry: ILPKELQTWVRDHHPENGEEAVTV [ZNF24] 4.17

State the recorded protein stability index for this entry: LLIDFAYTSQITVEEGNVQTLLPA [KLHL20] 1.94

State the recorded protein stability index for this entry: HSFNFVLSANLHGGAVVANYPYDK [CPN1] 2.4

State the recorded protein stability index for this entry: KSKKYSDVEVPASVTGYSFASDGD [ADD1] 4.82
